The reported numbers originate from PubChem BioAssay (NCI).

PROTOCOL_DESCRIPTION: NCI Yeast Anticancer Drug Screen. Data for the bub3 strain (AID 167)
STATED_CONDITIONS: S. cerevisiae bub3 mutant strain, at 50.0 µM, stronger effect = higher value
The panel holds about 79,000 compounds, 15% with a hit somewhere; the sample as a whole holds those more often.
Would you please tag the item yes (1) when its growth inhibition is 20% or above, and no (0) when it is below?

{"columns": ["MOLECULE", "CLASS_ASSIGNMENT"],
 "data": [
  ["O=S(=O)(c1ccccc1)N1CN(S(=O)(=O)c2ccccc2)CN(S(=O)(=O)c2ccccc2)C1", "no (0)"],
  ["CC(C)Oc1cc2c(cc1O)CC[C@@H]1[C@@H]2CC[C@]2(C)[C@@H](O)CC[C@@H]12", "yes (1)"],
  ["O=C(COc1ccc(Cl)c(Cl)c1)NCc1ccc([N+](=O)[O-])cc1", "yes (1)"],
  ["CC1(C)OC2C(CNS(C)(=O)=O)OC(n3cnc4c(N)ncnc43)C2O1 (stereo not given)", "no (0)"],
  ["CCC(C)N=Cc1ccccc1O.CCC(C)N=Cc1ccccc1O.[Cu] (stereo not given)", "no (0)"]
]}

---

PROTOCOL_DESCRIPTION: NCI Yeast Anticancer Drug Screen. Data for the bub3 strain (AID 167)
STATED_CONDITIONS: S. cerevisiae bub3 mutant strain, at 50.0 µM, stronger effect = higher value
This is part of a sample that, as a whole, favours compounds with a hit. Of some 79,000 tested, about 15% had one in any assay.
Each item that follows carries a reported growth inhibition.

{"columns": ["MOLECULE", "growth inhibition (%)"],
 "data": [
  ["CC(=O)Oc1ccccc1Cl", 19.1],
  ["CCCC(CC)C(=O)NC(N)=O (configuration not stated)", -20.2],
  ["NC(=O)/C=C/C(N)=O", -5.05],
  ["O=C(Cc1ccc([N+](=O)[O-])c([N+](=O)[O-])c1CC(=O)C(=O)Nc1cc(Cl)ccc1Cl)C(=O)Nc1cc(Cl)ccc1Cl", 25.1],
  ["CCCCCCCCCCCCCCCCOCC(COP(=O)(O)OCC1OC(n2cc(CC)c(=O)[nH]c2=O)CC1O)OC(=O)CCCCCCCCCCCCCCC (configuration not stated)", -15.1],
  ["CCOC(=O)C(Cc1cccc2ccccc12)(NC(C)=O)C(=O)OCC", 16.5],
  ["Cc1cnc(NCCCCCCNc2ncc(C)c(-c3ccccc3O)n2)nc1-c1ccccc1O", 0.35],
  ["C=CCNC(=S)Nc1ccc(OC(=O)NC2CCCCC2)cc1", -2.4],
  ["CC(=O)Nc1ccccc1N", -14.3],
  ["CC(=O)OCC1OC2OC(C)(C)OC2C1NC(=O)C(F)(F)F (configuration not stated)", -5.6],
  ["CC(C)NC(=O)CCSCCC(=O)NC(C)C", -17.9],
  ["O=C(CCl)Nc1cc(C(F)(F)F)ccc1Cl", 23.9]
]}

---

Each item that follows carries a reported growth inhibition.
PROTOCOL_DESCRIPTION: NCI Yeast Anticancer Drug Screen. Data for the mec2-1 strain (AID 157)
STATED_CONDITIONS: S. cerevisiae mec2-1 strain, at 50.0 µM, stronger effect = higher value
This is part of a sample that, as a whole, favours compounds with a hit. Of some 79,000 tested, about 15% had one in any assay.

{"columns": ["COMPOUND", "growth inhibition [%]"],
 "data": [
  ["CC1(C)/C(=C\\C(=O)O)C2CCC1C2 (configuration not stated)", 8.3],
  ["O=C1OC(c2ccccc2)C=C1Nc1ccccc1 (configuration not stated)", 12.4],
  ["COc1cccc(NC(=S)NNC(=S)NNc2ccccc2)c1", 60.2],
  ["CN(C)/C(N)=N\\C(N)=Nc1cc2ccccc2c2ccccc12", -9.55],
  ["OCC1C2C=CC(O2)[C@H]1CO (some centres not stated)", -3.75],
  ["Nc1ncnc2c1ccn2Cc1c(Cl)cccc1Cl", -0.2],
  ["O=C(CCOP(=O)(NCCCl)NCCCl)c1ccccc1", -14.8],
  ["CC(C)(C)c1cc(C(=O)Nc2cc(Br)c(Br)cc2S(N)(=O)=O)cc(C(C)(C)C)c1O", 7.8],
  ["CCCCCCCCCCCCCCCC(=O)ON1C(=S)NC(C)(c2ccccc2)C1=S (configuration not stated)", 5.45],
  ["C1CCC(C(CCCCC(C2CCCCC2)C2CCCCC2)C2CCCCC2)CC1", -3.8],
  ["CC(=O)Nc1cc(C)cc(Br)c1", -4.1],
  ["O=[n+]1c(-c2ccccc2)c(-c2ccccc2)n([O-])c2cc3ccccc3cc21", 3.65]
]}

---

PROTOCOL_DESCRIPTION: NCI Yeast Anticancer Drug Screen. Data for the rad50 strain (AID 155);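 also: 0% = growth of vehicle-only cultures of the same strain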
STATED_CONDITIONS: S. cerevisiae rad50 strain growth inhibition; at 50.0 µM; stronger effect = higher value
This is part of a sample that, as a whole, favours compounds with a hit. Of some 79,000 tested, about 15% had one in any assay.
REPORTED_ENDPOINT: growth inhibition (%)

{"columns": ["COMPOUND", "REPORTED_ENDPOINT", "OBS_VALUE"],
 "data": [
  ["Cc1nc2n(c1C(N)=O)CCS2", "growth inhibition", 5.15],
  ["Cc1cc2c(=O)cc(-c3ccc(F)cc3)oc2c(C(=O)O)c1C", "growth inhibition", -19.1],
  ["COC(=O)c1cc(C(=O)OC)c(C/C(=N/NC(=O)C[N+](C)(C)C)C(=O)Nc2cccc(C(F)(F)F)c2)nc1C/C(=N/NC(=O)C[N+](C)(C)C)C(=O)Nc1cccc(C(F)(F)F)c1", "growth inhibition", -14.5],
  ["BrCc1ccc(C[P+](c2ccccc2)(c2ccccc2)c2ccccc2)cc1", "growth inhibition", 26.3],
  ["CC(=O)NC(Cc1ccc(OC(C)=O)c(OC(C)=O)c1)C(C)=O (stereo not given)", "growth inhibition", -10.4],
  ["N#CC(CCc1ccccc1[N+](=O)[O-])(CCc1ccccc1[N+](=O)[O-])C(N)=O", "growth inhibition", 19.3],
  ["CCCC(CO)OC(=O)Nc1ccc(-c2ccccc2)cc1 (stereo not given)", "growth inhibition", -7.75],
  ["Oc1[nH]c2ccccc2c1N=NC1=NCCCCN1", "growth inhibition", -33.2],
  ["CN(C)Cc1cccc(C(F)(F)F)c1C(O)c1ccccc1 (stereo not given)", "growth inhibition", 7.75],
  ["CCC(C)Nc1ncnc2c1cnn2C (stereo not given)", "growth inhibition", -14.2]
]}

---

PROTOCOL_DESCRIPTION: NCI Yeast Anticancer Drug Screen. Data for the mec2-1 strain (AID 157)
STATED_CONDITIONS: S. cerevisiae mec2-1 strain, at 50.0 µM, stronger effect = higher value
About 79,000 compounds went through this panel and 15% of them were active in at least one assay; those are over-represented in the sample as a whole.
REPORTED_ENDPOINT: growth inhibition (%)

{"columns": ["COMPOUND", "REPORTED_ENDPOINT", "OBS_VALUE"],
 "data": [
  ["CCc1cccc2[nH]c3cc([N+](=O)[O-])ccc3c12", "growth inhibition", -13.8],
  ["N#C/C(=C\\c1cc(Br)cc(Br)c1O)c1ccc([N+](=O)[O-])cc1", "growth inhibition", -10.9],
  ["CCOC(=O)CN=NNc1ccccc1C(C)=O", "growth inhibition", 7.45],
  ["O=C(O)c1ccc(N=NC2Sc3nc4ccccc4n3C2=O)cc1 (centres undefined)", "growth inhibition", -13.8],
  ["O=C1OC(=O)C2C3CCC(O3)C12 (centres undefined)", "growth inhibition", 7.4],
  ["CCCCCCCC(N)C(=O)O (centres undefined)", "growth inhibition", -2.55],
  ["OCC(O)C(O)C(O)c1nn(-c2ccccc2)c2nc3ccccc3nc12 (centres undefined)", "growth inhibition", 1.3],
  ["CC(C)/C=C1\\CCC(CN(C)C)C1=O (centres undefined)", "growth inhibition", 56.1],
  ["Nc1cc(S(=O)(=O)O)ccc1O", "growth inhibition", -16.1],
  ["COc1ccc(OC)c(NC(=O)OCc2ccc3c(c2)OCO3)c1", "growth inhibition", -14],
  ["O=S(=O)(Nc1ncccn1)c1ccc(N=NSC2=NC=NC3=NC=NC32)cc1 (centres undefined)", "growth inhibition", 17.4],
  ["CC(C)Cc1c(N)nc(NCCCC(N)C(=O)O)[nH]c1=O (centres undefined)", "growth inhibition", -16.9],
  ["c1ccc(C(c2ccccc2)c2cc(-c3cc(C(c4ccccc4)c4ccccc4)[nH]n3)n[nH]2)cc1", "growth inhibition", 21.4],
  ["CC(=O)Nc1ccc(-c2nnc(SCC(=O)Nc3ccc(C)cc3)o2)cc1", "growth inhibition", -5.5],
  ["CC(=O)c1nc2ccccc2n1CC(=O)c1ccc(Cl)cc1", "growth inhibition", 11.3],
  ["CN1CCC(O)(c2ncc(Br)c3ccccc23)CC1", "growth inhibition", -7.8],
  ["CCN(CC)CCNC(=O)Cc1cc(O)c2c(c1O)C(=O)c1ccccc1C2=O", "growth inhibition", 5],
  ["NC(CC(=O)OCc1ccccc1)C(=O)OCc1ccccc1 (centres undefined)", "growth inhibition", 9.3],
  ["O=C1OC(Nc2ccccc2)C(Cl)=C1Cl (centres undefined)", "growth inhibition", 13.8],
  ["CC(=O)OC1CC23CCC(=O)C2(CC3)C1 (centres undefined)", "growth inhibition", -5.8],
  ["[CH3][Sn]([CH3])([O]C(=O)c1ccc2c(c1)OCO2)[O]C(=O)c1ccc2c(c1)OCO2", "growth inhibition", -3.25],
  ["S=C(NNC(=S)Nc1ccccc1)Nc1ccccc1", "growth inhibition", 1.7],
  ["Oc1cc(CN2CCOCCOCCOCCOCC2)c(O)cc1CN1CCOCCOCCOCCOCC1", "growth inhibition", -11.8],
  ["Cc1ccc(S(=O)(=O)CCS(C)(=O)=O)cc1", "growth inhibition", 2.2]
]}
